Exercise: for every item that follows, state its recorded pIC50.
biological target: ACLY (Homo sapiens (Human)); assay: InCell Pulse assay (permeate HEK293 cells, bind to and stabilize ACLY); assay type: cell-based; details: HEK293 cells transfected with pICP-ACLY(FL)-ePL; 1 hour at 37° C., 55° C. heat pulse 10 minutes; read-out: InCell Pulse IC50 GMean
Sequence (P53396 whole entry): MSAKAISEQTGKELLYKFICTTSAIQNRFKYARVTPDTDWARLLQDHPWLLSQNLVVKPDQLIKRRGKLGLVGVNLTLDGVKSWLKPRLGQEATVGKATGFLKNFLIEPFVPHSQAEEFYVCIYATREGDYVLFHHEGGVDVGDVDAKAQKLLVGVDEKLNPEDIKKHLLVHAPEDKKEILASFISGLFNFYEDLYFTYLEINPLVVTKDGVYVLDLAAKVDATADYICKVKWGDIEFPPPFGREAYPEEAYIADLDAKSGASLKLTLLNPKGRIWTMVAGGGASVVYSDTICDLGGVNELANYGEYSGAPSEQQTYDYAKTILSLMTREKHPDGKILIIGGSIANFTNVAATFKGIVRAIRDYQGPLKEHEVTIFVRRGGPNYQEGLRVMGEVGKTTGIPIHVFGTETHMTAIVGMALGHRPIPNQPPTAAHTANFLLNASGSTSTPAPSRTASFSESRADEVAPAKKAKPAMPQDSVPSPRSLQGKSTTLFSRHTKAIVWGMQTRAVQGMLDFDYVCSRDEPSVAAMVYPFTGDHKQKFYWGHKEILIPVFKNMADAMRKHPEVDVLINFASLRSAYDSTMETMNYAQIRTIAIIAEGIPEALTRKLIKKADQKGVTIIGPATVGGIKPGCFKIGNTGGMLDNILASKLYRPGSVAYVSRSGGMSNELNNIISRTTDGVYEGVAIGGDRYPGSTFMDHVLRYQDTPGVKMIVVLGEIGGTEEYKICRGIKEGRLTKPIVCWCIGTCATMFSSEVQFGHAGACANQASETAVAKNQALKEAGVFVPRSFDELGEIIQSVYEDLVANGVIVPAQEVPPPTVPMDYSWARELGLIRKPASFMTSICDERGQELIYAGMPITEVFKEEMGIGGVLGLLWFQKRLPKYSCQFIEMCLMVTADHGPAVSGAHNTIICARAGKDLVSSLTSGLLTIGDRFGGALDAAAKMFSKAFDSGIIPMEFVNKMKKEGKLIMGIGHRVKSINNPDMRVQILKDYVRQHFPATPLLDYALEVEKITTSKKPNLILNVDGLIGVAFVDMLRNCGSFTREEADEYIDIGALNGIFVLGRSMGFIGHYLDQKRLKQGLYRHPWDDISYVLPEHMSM
pIC50: −log10 of the molar value.

// query Tell me its pIC50 given O=C1OCC2CN(C2)c2ccccc2-c2cc(c(F)cc2F)NS(=O)(=O)c2cc1cc(Cl)c2O [Compound 76] as the entry.
// result 4.30 to 6.00

// query Tell me its pIC50 given O=C1OCCOc2ccccc2-c2ccc(C3CC3)c(c2)NS(=O)(=O)c2cc1cc(Cl)c2O [Compound 57] as the entry.
// result 4.30 to 6.00

// query Tell me its pIC50 given O=C1OCCOc2ccccc2-c2cc(F)c(F)c(c2)NS(=O)(=O)c2cc1cc(Cl)c2O [Compound 54] as the entry.
// result > 6.52

// query Tell me its pIC50 given O=C1Cc2cc(Cl)c(O)c(c2)S(=O)(=O)Nc2cc(c(F)cc2F)-c2ccccc2CO1 [Compound 68] as the entry.
// result > 6.52

// query Tell me its pIC50 given CC1CCOC(=O)c2cc(Cl)c(O)c(c2)S(=O)(=O)Nc2cc(c(F)cc2F)-c2ccccc21 (stereo not shown) [Compound 43] as the entry.
// result 6.00 to 6.52

// query Tell me its pIC50 given COc1ccc2cc1NS(=O)(=O)c1cc(cc(Cl)c1O)C(=O)OCCOc1ccccc1-2 [Compound 26] as the entry.
// result 6.00 to 6.52

// query Tell me its pIC50 given O=C1OCCc2ccccc2-c2ccc(F)c(c2)NS(=O)(=O)c2cc1cc(Cl)c2O [Compound 72] as the entry.
// result > 6.52

// query Tell me its pIC50 given O=C1NCCOc2ccccc2-c2cc(c(F)cc2F)NS(=O)(=O)c2cc1cc(Cl)c2OC(F)F [Compound 15] as the entry.
// result ≤ 4.30

// query Tell me its pIC50 given C[C@H]1COc2ccccc2-c2cc(c(F)cc2F)NS(=O)(=O)c2cc(cc(Cl)c2O)C(=O)N1 [Compound 17] as the entry.
// result ≤ 4.30

// query Tell me its pIC50 given O=C1OCCOc2ccccc2-c2cc(c(F)cc2F)NS(=O)(=O)c2cc(O)cc1c2 [Compound 65] as the entry.
// result ≤ 4.30

// query Tell me its pIC50 given O=C1OCCOc2ccccc2-c2ccc(OC(F)F)c(c2)NS(=O)(=O)c2cc1cc(Cl)c2O [Compound 55] as the entry.
// result 6.00 to 6.52

// query Tell me its pIC50 given O=C1NCCOc2cccc(c2)-c2cc(c(F)cc2F)NS(=O)(=O)c2cc1cc(Cl)c2O [Compound 3] as the entry.
// result ≤ 4.30

// query Tell me its pIC50 given O=C1OCCOc2ccccc2-c2cc(c(F)cc2F)NS(=O)(=O)c2cc1cc(=O)[nH]2 [Compound 38] as the entry.
// result ≤ 4.30
